Measured values drawn from patent US5952307A for this set.

Target: mast cell tryptase (Homo sapiens, UniProt Q15661)
Sequence (Q15661 31-275): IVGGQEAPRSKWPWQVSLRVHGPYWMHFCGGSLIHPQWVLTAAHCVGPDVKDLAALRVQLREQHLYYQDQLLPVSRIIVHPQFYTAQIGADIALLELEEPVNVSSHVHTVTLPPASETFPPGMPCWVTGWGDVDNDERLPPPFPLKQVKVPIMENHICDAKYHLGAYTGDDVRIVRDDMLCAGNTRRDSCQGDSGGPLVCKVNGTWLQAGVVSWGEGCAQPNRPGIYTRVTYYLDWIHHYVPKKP
Experiment: Inactivation rate of mast cell tryptase, incubation method
Format: biochemical
Conditions: Table III; enzyme 0.06-0.5 μM, inhibitor 0.25-42 μM, 9% DMSO, 25° C.; NI = no inhibition
REPORTED_METRIC: kobs /[I] mast cell tryptase

As a guide, the following entries are already answered.
• NCCCCC(NC(=O)C1CCCN1C(=O)CNS(=O)(=O)Cc1ccccc1)P(=O)(Oc1ccccc1)Oc1ccccc1 (mixture of isomers) = 24 ± 0 M⁻¹ s⁻¹
• Cl.NCCCCC(NC(=O)[C@@H]1CCCN1C(=O)c1ccccc1Oc1ccccc1)P(=O)(Oc1ccccc1)Oc1ccccc1 (some centres unmarked) = 19 ± 1 M⁻¹ s⁻¹
• Cl.NCCCCC(NC(=O)OCc1ccccc1)P(=O)(Oc1ccccc1)Oc1ccccc1 (centres unmarked) = 17 ± 1 M⁻¹ s⁻¹
• Cl.NCCCCC(NC(=O)[C@@H]1CCCN1C(=O)c1cccc(Oc2ccccc2)c1)P(=O)(Oc1ccccc1)Oc1ccccc1 (some centres unmarked) = 16 ± 1 M⁻¹ s⁻¹

From here, focus on the item given below.
According to the records, this compound NCCCCC(NC(=O)[C@@H]1CCCN1C(=O)CC(c1ccccc1)c1ccccc1)P(=O)(Oc1ccccc1)Oc1ccccc1 (some centres unmarked) displays kobs /[I] mast cell tryptase of 74 ± 9 M⁻¹ s⁻¹
